- Tested on: HS 578T breast
- assayRemarks: NCI tumour cell line growth inhibition, 48 h
Listed next: entries and their corresponding TGI.
readoutLabel: TGI

>>> val("N#C/C(=C\\c1cccnc1)c1nc2ccccc2o1")
"> 100 µM"
>>> val("CCC1OC(/C(C)=C/C(C)/C=C/C2C(C)C2/C=C/C2OC(CC(=O)O)CC(O)C2O)CC=C1C (centres undefined)")
"> 50 µM"
>>> val("Nc1ccc(-c2nc3ccccc3s2)cc1")
"> 84 µM"
>>> val("Cc1[nH]n(-c2ccccc2)c(=O)c1C(=O)c1ccccc1")
"> 25 µM"
>>> val("C/C(=C\\CNc1nc(Cl)nc2nc[nH]c12)CO")
"> 100 µM"
>>> val("CC(C)N(Cc1ccccc1)S(=O)(=O)c1n[nH]c(C(C)(C)C)n1")
"> 100 µM"
>>> val("CN(C)CCNc1c2c(c(NCCN(C)C)c3c(CO)c[nH]c13)C(=O)c1ccccc1C2=O")
"13.6 µM"
>>> val("NC(=S)N/N=C\\c1nccc2c(C(F)(F)C(F)(F)C(F)(F)F)cccc12")
"22.6 µM"
>>> val("C=C1C[C@@H]2[C@H](CC[C@]3(C)C(=O)CC[C@@H]23)[C@@]2(C)C=CC(=O)C=C12")
"> 77.2 µM"

---

Listed next: entries and their corresponding GI50.
- Test system: TK-10 renal
- assayRemarks: NCI tumour cell line growth inhibition, 48 h
readoutLabel: GI50

>>> val("N#Cc1ncc(N2C(=O)C3(CCC3)N(c3ccc(OC4CCNCC4)nc3)C2=S)cc1C(F)(F)F")
"17.9 µM"
>>> val("Cn1c(O)c(N=NC(N)=S)c2ccccc21")
"> 100 µM"
>>> val("CCC(=O)OC1=CN2C(=NC(c3ccc(N)cc3)=CC2c2cc(OC)c(OC)c(OC)c2)S1 (configuration not stated)")
"4 µM"
>>> val("COc1ccc(S(=O)(=O)n2c3ccccc3n3ncc(-c4nnc(C)o4)c23)cc1")
"25.4 µM"
>>> val("CCC1(CC)C(=O)[N-]C(=O)[N-]C1=O.[Au+].[Au+].c1ccc([PH+](c2ccccc2)c2ccccc2)cc1.c1ccc([PH+](c2ccccc2)c2ccccc2)cc1")
"1.79 µM"
>>> val("FC(F)(F)c1cc(NC2=NCCN=C(Nc3cc(C(F)(F)F)cc(C(F)(F)F)c3)SS2)cc(C(F)(F)F)c1")
"5.25 µM"
>>> val("O=c1oc2cc(OS(=O)(=O)c3ccccc3)ccc2c2c1CCCCC2")
"> 100 µM"

---

Listed next: entries and their corresponding TGI.
- Test system: CAKI-1 renal
- assayRemarks: NCI tumour cell line growth inhibition, 48 h
readoutLabel: TGI

>>> val("Cc1cc(O)c2c(c1)C(=O)C(c1c(C)cc3c(c1O)C(=O)C1OC1C3=O)=CC2=O (centres undefined)")
"2.11 µM"
>>> val("CC(=O)O[C@H](C[C@H](C(C)C)N(C)C(=O)[C@@H](NC(=O)[C@H]1CCCCN1C)C(C)(C)C)c1nc(C(=O)N[C@@H](Cc2ccccc2)C[C@H](C)C(=O)O)cs1")
"> 25 µM"
>>> val("N#Cc1c(-c2ccc(Cl)cc2)cc(-c2nc3ccccc3[nH]2)nc1N")
"46.6 µM"
>>> val("Cc1ccc(C)c2c1CCc1cc3ccccc3nc1-2")
"> 100 µM"
